Kindly state DC50 for each of the entries shown.
target: IRAK4 (Homo sapiens, UniProt Q9NWZ3); assay: Hibit fluorescence detection of proteolysis (IRAK4-HiBiT in HEK293T cells); assay type: cell-based; parameters: host or cells: HEK293T (ATCC); conditions: IRAK4-HiBiT, HEK293T cells, 24 h
Structures can show the parent of a compound that is named as a salt.

Item under review: Cn1c(=O)n(C2CCC(=O)NC2=O)c2cccc(NC[C@H]3CC[C@@H](N(C)C[C@H]4CC[C@H](n5cc(-n6cc(-c7cnn8ccc(N9CCOCC9)nc78)nn6)c(C(F)F)n5)CC4)CC3)c21 (stereo partly drawn) . Reported DC50? < 0.5 nM

Moving on to the next molecule: Cn1c(=O)n(C2CCC(=O)NC2=O)c2cccc(N3CCC4(CCN(C[C@H]5CC[C@H](n6cc(-n7cc(-c8cnn9ccc(N%10CCNCC%10)nc89)nn7)c(C(F)F)n6)CC5)C4)CC3)c21 (stereo partly drawn) [Example 128, dihydrochloride] < 0.5 nM

Moving on to the next molecule: Cn1c(=O)n(C2CCC(=O)NC2=O)c2cccc(N3CCN(C4CCN(C[C@H]5CC[C@H](n6cc(-n7cc(-c8ccc9cc(C(N)=O)cnn89)nn7)c(C(F)F)n6)CC5)CC4)CC3)c21 (stereo partly drawn) < 0.5 nM

Moving on to the next molecule: Cn1c(=O)n(C2CCC(=O)NC2=O)c2cccc(N3C4CCC3CN(C[C@H]3CC[C@H](n5cc(-n6cc(-c7cnn8ccc(N9CCOCC9)nc78)nn6)c(C(F)F)n5)CC3)C4)c21 (stereo partly drawn) > 5 nM

Moving on to the next molecule: Cn1c(=O)n(C2CCC(=O)NC2=O)c2cccc(N3CCC4(CCN(C[C@H]5CC[C@H](n6cc(-n7cc(-c8cnn9ccc(N[C@H]%10CCCC[C@H]%10O)nc89)nn7)c(C(F)F)n6)CC5)CC4)CC3)c21 (stereo partly drawn) < 0.5 nM

Moving on to the next molecule: Cn1c(=O)n(C2CCC(=O)NC2=O)c2cccc(N3CCC4(CCN(C[C@H]5CC[C@H](n6cc(-n7cc(-c8cnn9ccc(N%10CCC[C@H](N)C%10)nc89)nn7)c(C(F)F)n6)CC5)C4)CC3)c21 (stereo partly drawn) 0.5 to 1 nM

Moving on to the next molecule: Cn1c(=O)n(C2CCC(=O)NC2=O)c2cccc(N3CCC4(CCN(C[C@H]5CC[C@H](n6cc(-n7cc(-c8ccc9cc(C(N)=O)cnn89)nn7)c(C(F)F)n6)CC5)C4)C3)c21 (stereo partly drawn) < 0.5 nM

Moving on to the next molecule: Cn1c(=O)n(C2CCC(=O)NC2=O)c2cccc(N3CCC4(CCN(C[C@H]5CC[C@H](n6cc(-n7cc(-n8ccc9cc(C(N)=O)cnc98)nn7)c(C(F)F)n6)CC5)C4)CC3)c21 (stereo partly drawn) < 0.5 nM

Moving on to the next molecule: Cn1c(=O)n(C2CCC(=O)NC2=O)c2cccc(N3CC(N4CCN(C[C@H]5CC[C@H](n6cc(-n7cc(-c8cnn9ccc(N%10CCOCC%10)nc89)nn7)c(C(F)F)n6)CC5)CC4)C3)c21 (stereo partly drawn) < 0.5 nM

---

Kindly state DC50 for each of the entries shown.
Biological target: IRAK4 (Homo sapiens, UniProt Q9NWZ3)
Sequence (Q9NWZ3 1-460): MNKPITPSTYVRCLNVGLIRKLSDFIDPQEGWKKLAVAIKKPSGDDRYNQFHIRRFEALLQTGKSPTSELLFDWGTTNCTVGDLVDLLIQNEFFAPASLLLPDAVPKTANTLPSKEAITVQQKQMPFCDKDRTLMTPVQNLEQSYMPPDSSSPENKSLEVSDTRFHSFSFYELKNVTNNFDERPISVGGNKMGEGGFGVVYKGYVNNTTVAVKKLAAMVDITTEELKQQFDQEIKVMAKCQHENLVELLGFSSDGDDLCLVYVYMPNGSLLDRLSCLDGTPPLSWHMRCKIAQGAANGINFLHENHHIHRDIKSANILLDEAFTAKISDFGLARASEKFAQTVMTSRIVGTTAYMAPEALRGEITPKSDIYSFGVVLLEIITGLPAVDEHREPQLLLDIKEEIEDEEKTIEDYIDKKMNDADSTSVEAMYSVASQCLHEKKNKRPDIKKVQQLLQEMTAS
Assay: Hibit fluorescence detection of proteolysis (IRAK4-HiBiT in HEK293T cells)
Format: cell-based
Design: host or cells: HEK293T (ATCC)
Conditions: IRAK4-HiBiT, HEK293T cells, 24 h; read-out: DC50

Item under review: CN1CCN(c2ccn3ncc(-c4cn(-c5cn([C@H]6CC[C@H](CN7CCC8(CC7)CCN(c7cccc9c7n(C)c(=O)n9C7CCC(=O)NC7=O)C8)CC6)nc5C(F)F)nn4)c3n2)CC1 (some centres unmarked) [Compound 228] . Reported DC50? < 500 pM

Moving on to the next compound: Cn1c(=O)n(C2CCC(=O)NC2=O)c2cccc(N3CCN(C[C@H]4CC[C@H](n5cc(-n6cc(-c7cnn8ccc(N9CCC(C)(O)CC9)nc78)nn6)c(C(F)F)n5)CC4)CC3)c21 (some centres unmarked) [Compound 235] < 500 pM

Moving on to the next compound: C[C@H]1CN(c2ccn3ncc(-c4cn(-c5cn([C@H]6CC[C@H](CN7CC8(CCN(c9cccc%10c9n(C)c(=O)n%10C9CCC(=O)NC9=O)CC8)C7)CC6)nc5C(F)F)nn4)c3n2)CCO1 (some centres unmarked) [Compound 212] < 500 pM

Moving on to the next compound: Cn1c(=O)n(C2CCC(=O)NC2=O)c2cccc(N3CCC4(CCN(C[C@H]5CC[C@H](n6cc(-n7cc(-c8cnn9cc(C#N)cnc89)nn7)c(C(F)F)n6)CC5)CC4)C3)c21 (some centres unmarked) [Compound 202] 500 to 1000 pM

Moving on to the next compound: C[C@H]1CN(c2ccn3ncc(-c4cn(-c5cn([C@H]6CC[C@H](CN7CCC8(CC7)CCN(c7cccc9c7n(C)c(=O)n9C7CCC(=O)NC7=O)C8)CC6)nc5C(F)F)nn4)c3n2)CCO1 (some centres unmarked) [Compound 203] < 500 pM
